target: Cytochrome P450 2C9 (Homo sapiens) (UniProt P11712); assay: Cytochrome P450 family 2 subfamily C member 9 (CYP2C9) small molecule antagonists: luciferase biochemical (cell-free) qHTS assay (AID 1645842); settings: P450-Glo CYP2C9 enzyme assay, luciferin luminescence; series mostly up to 57.4 µM; also: nearly all actives have a fitted effect of over 55% in size
Sequence (P11712 whole entry, looked up): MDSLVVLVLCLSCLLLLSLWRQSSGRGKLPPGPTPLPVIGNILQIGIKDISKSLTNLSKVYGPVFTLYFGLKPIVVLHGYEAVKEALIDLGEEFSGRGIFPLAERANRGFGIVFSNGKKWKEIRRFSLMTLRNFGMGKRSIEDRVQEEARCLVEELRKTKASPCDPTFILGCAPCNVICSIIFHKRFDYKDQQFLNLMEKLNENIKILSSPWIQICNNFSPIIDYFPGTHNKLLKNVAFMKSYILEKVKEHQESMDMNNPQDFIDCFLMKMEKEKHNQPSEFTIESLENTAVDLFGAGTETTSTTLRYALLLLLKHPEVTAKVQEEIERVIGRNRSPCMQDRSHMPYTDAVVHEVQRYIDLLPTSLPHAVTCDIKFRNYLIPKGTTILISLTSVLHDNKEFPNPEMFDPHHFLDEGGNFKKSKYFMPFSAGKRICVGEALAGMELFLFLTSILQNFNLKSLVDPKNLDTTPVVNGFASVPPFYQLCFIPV
Inconclusive results are not listed. The source made the active and inactive calls. Calls follow the shape of the dose curve; as a rule, active = well fitted inhibition curve with a large enough effect in the repeat runs; inconclusive = weak or mixed curves; inactive = no such curve, though single readings can be large or run the other way.
Tick one outcome: active, inactive

// outcome(item) with item = CCN(CC)CCNC(=O)c1ccc(NC(C)=O)cc1
inactive

// outcome(item) with item = CC[N+](C)(C)c1cccc(O)c1
inactive

// outcome(item) with item = NC(=O)c1ncn([C@@H]2O[C@H](CO)[C@@H](O)[C@H]2O)c1O
inactive

// outcome(item) with item = CN(C)CCOC(=O)COc1ccc(Cl)cc1
inactive

// outcome(item) with item = CCn1cc(C(=O)O)c(=O)c2cc3c(cc21)OCO3
inactive

// outcome(item) with item = Cc1nc2c([nH]1)c(=O)n(C)c(=O)n2Cc1ccco1
inactive

// outcome(item) with item = CN(C(=O)CCCOc1ccc2[nH]c(=O)ccc2c1)C1CCCCC1
active

// outcome(item) with item = C[N+](C)(C)CCOC(=O)CCC(=O)OCC[N+](C)(C)C
inactive

// outcome(item) with item = CCOC(=O)C1=C(C)NC(C)=C(C(=O)OC)C1c1cccc([N+](=O)[O-])c1 (stereo unspecified)
active

// outcome(item) with item = CC(=O)Nc1nnc(S(N)(=O)=O)s1
inactive

// outcome(item) with item = CCC(=O)c1ccc2c(c1)N(CCCN(C)C)c1ccccc1S2
inactive

// outcome(item) with item = CCCCNc1c(C(=O)OCC)c(C)nc2c1cnn2CC
active

// outcome(item) with item = CCCN1C[C@H](CSC)C[C@@H]2c3cccc4[nH]cc(c34)C[C@H]21
inactive

// outcome(item) with item = CCCOc1ccccc1-c1nc2n[nH]nc2c(=O)[nH]1
inactive

// outcome(item) with item = c1cc(CN2CCCCC2)cc(OCCCNc2nc3ccccc3s2)c1
inactive

// outcome(item) with item = NC/C=C/C(=O)O
inactive

// outcome(item) with item = CCNC(=O)N1CCN(CCCC(c2ccc(F)cc2)c2ccc(F)cc2)CC1
inactive

// outcome(item) with item = CSc1ccc(C(=O)c2[nH]c(=O)[nH]c2C)cc1
inactive

// outcome(item) with item = CCN1CCC[C@H]1CNC(=O)c1c(O)c(Cl)cc(Cl)c1OC
inactive

// outcome(item) with item = Cc1cccc(C)c1NC(=O)C(C)N (stereo unspecified)
inactive

// outcome(item) with item = CCCC(C(=O)OCCN(CC)CC)(c1ccccc1)c1ccccc1
active

// outcome(item) with item = Brc1c(NC2=NCCN2)ccc2nccnc12
inactive

// outcome(item) with item = CCCN(CCC)CCc1cccc2c1CC(=O)N2
inactive

// outcome(item) with item = CN(C)CCN(Cc1cccs1)c1ccccn1
inactive

// outcome(item) with item = C[C@]12CCC(=O)C=C1CC[C@@H]1[C@@H]2C(=O)C[C@@]2(C)[C@H]1CC[C@]2(O)C(=O)CO
inactive

// outcome(item) with item = CC(=O)OCC1=C(C(=O)O)N2C(=O)[C@@H](NC(=O)Cc3cccs3)[C@H]2SC1
inactive

// outcome(item) with item = CC(=O)Oc1cc(C(C)C)c(OCCN(C)C)cc1C
inactive

// outcome(item) with item = CN1CCN(C2=Nc3ccccc3Oc3ccc(Cl)cc32)CC1
inactive

// outcome(item) with item = N[C@@H](COP(=O)(O)O)C(=O)O
inactive

// outcome(item) with item = C=CCc1ccccc1OCC(O)CNC(C)C (stereo unspecified)
inactive

// outcome(item) with item = Nc1ncn([C@@H]2O[C@H](CO)[C@@H](O)[C@H]2O)c(=O)n1
inactive

// outcome(item) with item = CCn1ccnc1CC1COc2ccccc2O1 (stereo unspecified)
inactive

// outcome(item) with item = CC(C)NCC(O)c1cc(O)cc(O)c1 (stereo unspecified)
inactive

// outcome(item) with item = NC(=O)c1cn(Cc2c(F)cccc2F)nn1
inactive

// outcome(item) with item = CN=C(NC#N)NCCSCc1nc[nH]c1C
active

// outcome(item) with item = O=C(CCCN1CCC(O)(c2cccc(C(F)(F)F)c2)CC1)c1ccc(F)cc1
inactive

// outcome(item) with item = CNC1(C)C2CCC(C2)C1(C)C (stereo unspecified)
inactive

// outcome(item) with item = O=C(O)CCCCCCCC(=O)O
inactive

// outcome(item) with item = CN(C)CCCN1c2ccccc2Sc2ccc(C(F)(F)F)cc21
inactive

// outcome(item) with item = COc1cc2c(cc1OC)-c1cc(=Nc3c(C)cc(C)cc3C)n(C)c(=O)n1CC2
active

// outcome(item) with item = Cc1ccc(/C(=C\CN2CCCC2)c2ccccn2)cc1
inactive
